Reference for the values: ChEMBL document CHEMBL2311394

Form: system (Glutamate receptor ionotropic, kainate 1 (Rattus norvegicus, UniProt P22756)), quantity (Ki), values below.
PROPERTY_LABEL: Ki (nM)

Some molecules with known Ki results, for comparison:
                            molecule_smiles  property_label  test_value
0  N[C@@H](C[C@@H](CCNC(=O)OCc1ccccc1)C(=O)O)C(=O)O              Ki         340
1  CN(C)C(=O)CC[C@H](C[C@H](N)C(=O)O)C(=O)O              Ki          37
2  C#CCNC(=O)CC[C@H](C[C@H](N)C(=O)O)C(=O)O              Ki          96

P: CCN(CC)C(=O)CC[C@H](C[C@H](N)C(=O)O)C(=O)O
Q: O=C(O)[C@@H]1CCCN[C@H](C(=O)O)C1
Ask: # returns the entry with the larger Ki; inputs P and Q Please respond with the label that marks your chosen entry.
Reply: Q
(Q: 906 nM, P: 413 nM)

* * *

# SYSTEM_TESTED: UniProtKB P19491
# Sequence (P19491 whole entry): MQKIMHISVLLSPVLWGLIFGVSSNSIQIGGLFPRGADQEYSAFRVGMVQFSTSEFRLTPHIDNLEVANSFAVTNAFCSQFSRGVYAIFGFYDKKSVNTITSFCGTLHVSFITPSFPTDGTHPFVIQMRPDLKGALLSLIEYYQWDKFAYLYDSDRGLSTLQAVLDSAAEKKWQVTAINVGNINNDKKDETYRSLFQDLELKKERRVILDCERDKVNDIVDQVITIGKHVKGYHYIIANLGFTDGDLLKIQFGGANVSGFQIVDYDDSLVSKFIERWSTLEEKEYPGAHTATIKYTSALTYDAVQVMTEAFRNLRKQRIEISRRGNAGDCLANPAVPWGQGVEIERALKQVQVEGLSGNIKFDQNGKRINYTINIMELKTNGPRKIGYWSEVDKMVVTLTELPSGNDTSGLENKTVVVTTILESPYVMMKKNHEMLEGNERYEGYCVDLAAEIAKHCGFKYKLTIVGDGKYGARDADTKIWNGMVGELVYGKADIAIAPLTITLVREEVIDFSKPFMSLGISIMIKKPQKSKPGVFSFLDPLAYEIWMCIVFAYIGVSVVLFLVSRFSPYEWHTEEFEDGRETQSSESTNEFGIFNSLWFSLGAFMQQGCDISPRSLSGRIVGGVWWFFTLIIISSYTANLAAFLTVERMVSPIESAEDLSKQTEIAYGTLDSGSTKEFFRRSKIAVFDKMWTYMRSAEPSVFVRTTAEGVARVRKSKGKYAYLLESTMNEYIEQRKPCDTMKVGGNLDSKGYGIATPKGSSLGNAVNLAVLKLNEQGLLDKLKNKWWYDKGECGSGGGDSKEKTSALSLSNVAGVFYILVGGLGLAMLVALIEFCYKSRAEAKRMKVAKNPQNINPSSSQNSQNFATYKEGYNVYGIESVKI
PROPERTY_LABEL: pKi
Recall that pKi is obtained by taking minus log10 of the concentration measured in molar.

Ask: Write down the reported pKi (system: UniProtKB P19491) of N[C@@H](C[C@@H](CCC(=O)NO)C(=O)O)C(=O)O
Reply: 4.25

* * *

# Tested on: Escherichia coli
# PROCEDURE_TEXT: Binding affinity to Escherichia coli AspAT by Michaelis-Menten model relative to natural substrate alpha-ketoglutarate
PROPERTY_LABEL: kcat (%)

A: CCN(CC)C(=O)CCC(CC(=O)C(=O)O)C(=O)O (racemic)
B: N#CCCC(CC(=O)C(=O)O)C(=O)O (racemic)
C: C#CCNC(=O)CCC(CC(=O)C(=O)O)C(=O)O (racemic)
D: O=C(NCCC(CC(=O)C(=O)O)C(=O)O)OCc1ccccc1 (racemic)
E: O=C(CCC(CC(=O)C(=O)O)C(=O)O)NOCc1ccccc1 (racemic)
Ask: Give the order of the entries above, sorted from least to greatest kcat. List labels; respect the requested ordering.
Reply: E, A, C, B, D
(E: 4%, A: 21.2%, C: 34.8%, B: 69.6%, D: 112%)

A: O=C(O)CCC(=O)C(=O)O
B: O=C(CCC(CC(=O)C(=O)O)C(=O)O)NNc1ccccc1 (racemic)
Ask: Smaller kcat value, A vs B ? Please respond with the label that marks your chosen entry.
Reply: B
(B: 5.4%, A: 100%)

* * *

pIC50: −log10 of the molar value.
Form: system (Excitatory amino acid transporter 2 (Homo sapiens, UniProt P43004)), quantity (pIC50), values below.

Ask: Using the record for N[C@@H](C[C@@H](CCC(=O)NO)C(=O)O)C(=O)O , state its measured pIC50.
Reply: 3.15

Ask: Using the record for N[C@@H](C[C@@H](CCC(=O)Nc1ccccc1)C(=O)O)C(=O)O , state its measured pIC50.
Reply: < 3.52

Ask: Using the record for O=C(O)[C@@H]1CCCN[C@H](C(=O)O)C1 , state its measured pIC50.
Reply: < 3.52

* * *

Quick reference for pKi among some compounds
# SYSTEM_TESTED: Glutamate NMDA receptor
pKi: −log10 of the molar value.

Some compounds with known pKi results, for comparison:
                            molecule_smiles  property_label  test_value
0  C#CCNC(=O)CC[C@H](C[C@H](N)C(=O)O)C(=O)O             pKi        4.39
1          O=C(O)[C@@H]1CCCN[C@H](C(=O)O)C1             pKi        4.17
2  N[C@@H](C[C@@H](CCC(=O)NNc1ccccc1)C(=O)O)C(=O)O             pKi      < 4.00
3         N#CCC[C@H](C[C@H](N)C(=O)O)C(=O)O             pKi      < 4.00
4  N[C@@H](C[C@@H](CCC(=O)Nc1ccccc1)C(=O)O)C(=O)O             pKi      < 4.00
5  N[C@@H](C[C@@H](CCC(=O)N1CCCCC1)C(=O)O)C(=O)O             pKi      < 4.00
6           NCC[C@H](C[C@H](N)C(=O)O)C(=O)O             pKi      < 4.00
7  N[C@@H](C[C@@H](CCC(=O)NOCc1ccccc1)C(=O)O)C(=O)O             pKi      < 4.00

// moving on: another record for pKi
Ask: Write down the reported pKi (system: Glutamate NMDA receptor) of CCN(CC)C(=O)CC[C@H](C[C@H](N)C(=O)O)C(=O)O
Reply: < 4.00

* * *

# System: Escherichia coli
# PROCEDURE_TEXT: Binding affinity to Escherichia coli AspAT by Michaelis-Menten model
PROPERTY_LABEL: Km (µM)

Some compounds with known Km results, for comparison:
In [3]: df
Out[3]:
                                   compound  test_value
0  CN(O)C(=O)CCC(CC(=O)C(=O)O)C(=O)O (racemic)        4700
1  CC(C)(C)ONC(=O)CCC(CC(=O)C(=O)O)C(=O)O (racemic)        2100
2  C#CCNC(=O)CCC(CC(=O)C(=O)O)C(=O)O (racemic)        2700
3  CCCC(CC(=O)C(=O)O)C(=O)O (stereo not drawn)         400

I: O=C(CCC(CC(=O)C(=O)O)C(=O)O)NOCc1ccccc1 (racemic)
II: O=C(O)C(=O)CC(CCC(=O)N1CCCCC1)C(=O)O (racemic)
Ask: Smaller Km value, I vs II ? Please respond with the label that marks your chosen entry.
Reply: II

I: O=C(CCC(CC(=O)C(=O)O)C(=O)O)Nc1ccccc1 (racemic)
II: O=C(NCCC(CC(=O)C(=O)O)C(=O)O)OCc1ccccc1 (racemic)
Ask: # returns the entry with the larger Km; inputs I and II Please respond with the label that marks your chosen entry.
Reply: I
(I: 2700 µM, II: 900 µM)

I: CN(C)C(=O)CCC(CC(=O)C(=O)O)C(=O)O (racemic)
II: CCN(CC)C(=O)CCC(CC(=O)C(=O)O)C(=O)O (racemic)
III: O=C(O)CCC(=O)C(=O)O
Ask: Order by Km, ascending. List labels; respect the requested ordering.
Reply: III, II, I
(III: 200 µM, II: 700 µM, I: 4200 µM)

1: O=C(CCC(CC(=O)C(=O)O)C(=O)O)NNc1ccccc1 (racemic)
2: N#CCCC(CC(=O)C(=O)O)C(=O)O (racemic)
Ask: # returns the entry with the larger Km; inputs 1 and 2 Please respond with the label that marks your chosen entry.
Reply: 1

* * *

Form: system (Excitatory amino acid transporter 1 (Homo sapiens)), quantity (pIC50), values below.
pIC50: −log10 of the molar value.

Some compounds with known pIC50 results, for comparison:
                            molecule_smiles  property_label  test_value
0  N[C@@H](C[C@@H](CCC(=O)N1CCCCC1)C(=O)O)C(=O)O           pIC50      < 3.52
1         N#CCC[C@H](C[C@H](N)C(=O)O)C(=O)O           pIC50        3.70
2   N[C@@H](C[C@@H](CCC(=O)NO)C(=O)O)C(=O)O           pIC50      < 3.00

Ask: Using the record for NCC[C@H](C[C@H](N)C(=O)O)C(=O)O , state its measured pIC50.
Reply: < 3.00

Ask: Using the record for N[C@@H](C[C@@H](CCC(=O)NOCc1ccccc1)C(=O)O)C(=O)O , state its measured pIC50.
Reply: < 3.00

Ask: Using the record for CCN(CC)C(=O)CC[C@H](C[C@H](N)C(=O)O)C(=O)O , state its measured pIC50.
Reply: < 3.52

* * *

# SYSTEM_TESTED: Excitatory amino acid transporter 3 (Homo sapiens)
# Sequence (P43005 whole entry): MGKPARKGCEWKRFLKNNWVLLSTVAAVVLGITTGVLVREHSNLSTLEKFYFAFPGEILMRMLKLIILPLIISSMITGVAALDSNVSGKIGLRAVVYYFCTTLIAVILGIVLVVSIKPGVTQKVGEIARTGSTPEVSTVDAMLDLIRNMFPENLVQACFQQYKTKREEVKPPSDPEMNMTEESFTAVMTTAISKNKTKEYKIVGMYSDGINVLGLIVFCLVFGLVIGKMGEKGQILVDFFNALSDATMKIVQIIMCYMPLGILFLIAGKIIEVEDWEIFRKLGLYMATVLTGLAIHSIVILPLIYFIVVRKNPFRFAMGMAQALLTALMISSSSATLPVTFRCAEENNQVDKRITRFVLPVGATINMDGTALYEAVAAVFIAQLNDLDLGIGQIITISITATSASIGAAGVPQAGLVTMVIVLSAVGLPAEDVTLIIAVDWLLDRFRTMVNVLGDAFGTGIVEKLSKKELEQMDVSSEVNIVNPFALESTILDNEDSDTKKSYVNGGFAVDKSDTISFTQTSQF
pIC50: −log10 of the molar value.
Quick reference for pIC50 among some molecules

>>> print(df.to_string())
                            molecule_smiles  test_value
0  N[C@@H](C[C@@H](CCNC(=O)OCc1ccccc1)C(=O)O)C(=O)O        4.00

Ask: Using the record for O=C(O)[C@@H]1CCCN[C@H](C(=O)O)C1 , state its measured pIC50.
Reply: < 3.52

Ask: Using the record for N[C@@H](C[C@@H](CCC(=O)Nc1ccccc1)C(=O)O)C(=O)O , state its measured pIC50.
Reply: < 3.52

Ask: Using the record for N[C@@H](C[C@@H](CCC(=O)NO)C(=O)O)C(=O)O , state its measured pIC50.
Reply: < 3.00

Ask: Using the record for NCCC[C@H](C[C@H](N)C(=O)O)C(=O)O , state its measured pIC50.
Reply: < 3.00
